Biological target: Ba/F3 EGFR Del19/T790M mutants (Homo sapiens, UniProt P00533, T790M, cells depend on it, form not given)
Sequence (P00533 with tags, fused parts or gaps DEL746-750/T790M, form open): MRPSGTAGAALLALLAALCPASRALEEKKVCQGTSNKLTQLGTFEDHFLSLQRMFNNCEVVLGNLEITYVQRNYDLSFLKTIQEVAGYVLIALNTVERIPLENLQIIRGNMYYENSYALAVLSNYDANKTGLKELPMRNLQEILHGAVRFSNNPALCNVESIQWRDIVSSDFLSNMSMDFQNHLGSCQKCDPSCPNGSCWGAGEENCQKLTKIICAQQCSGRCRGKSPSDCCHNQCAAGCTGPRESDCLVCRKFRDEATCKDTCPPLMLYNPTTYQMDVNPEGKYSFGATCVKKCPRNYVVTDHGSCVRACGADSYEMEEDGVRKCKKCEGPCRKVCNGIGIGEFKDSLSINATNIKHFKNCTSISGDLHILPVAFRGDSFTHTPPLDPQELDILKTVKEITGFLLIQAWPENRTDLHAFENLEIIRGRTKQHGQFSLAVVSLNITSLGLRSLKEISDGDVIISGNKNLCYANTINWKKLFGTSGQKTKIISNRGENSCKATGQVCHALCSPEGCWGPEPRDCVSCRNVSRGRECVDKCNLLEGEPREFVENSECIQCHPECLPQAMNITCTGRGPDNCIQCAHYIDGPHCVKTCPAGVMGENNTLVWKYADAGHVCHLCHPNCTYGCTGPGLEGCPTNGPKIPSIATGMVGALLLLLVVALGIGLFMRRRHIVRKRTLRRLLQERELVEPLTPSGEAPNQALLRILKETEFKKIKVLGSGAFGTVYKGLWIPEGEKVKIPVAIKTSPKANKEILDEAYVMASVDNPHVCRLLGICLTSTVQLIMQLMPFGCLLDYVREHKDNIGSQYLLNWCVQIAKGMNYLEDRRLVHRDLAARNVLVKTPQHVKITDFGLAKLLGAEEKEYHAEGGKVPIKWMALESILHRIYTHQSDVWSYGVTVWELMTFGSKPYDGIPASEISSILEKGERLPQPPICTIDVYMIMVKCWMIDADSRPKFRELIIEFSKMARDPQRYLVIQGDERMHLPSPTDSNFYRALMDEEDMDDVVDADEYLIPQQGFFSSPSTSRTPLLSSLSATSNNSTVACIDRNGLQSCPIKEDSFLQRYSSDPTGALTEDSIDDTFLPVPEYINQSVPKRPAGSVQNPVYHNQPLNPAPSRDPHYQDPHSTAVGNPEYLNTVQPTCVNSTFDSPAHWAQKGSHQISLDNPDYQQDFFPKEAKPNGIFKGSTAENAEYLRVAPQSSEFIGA
Assay: CellTiter-Glo cell viability, Ba/F3 EGFR Del19/T790M cells
Type: cell-based, murine
Conditions: 72 hours, read-out: Ba/F3 EGFR mutant cell (IC50, nM) D/T
Friendly reminder: GI50 below 20 nM is true, at or above is false.

Look over these answered cases.
COMPOUND	ASSIGNED LABEL
COc1cc(N2CCC(N(C)C)CC2)c(C)cc1Nc1ncc(Br)c(Nc2ccc3nccnc3c2N(C)S(C)(=O)=O)n1 [Example B7]	false
CCCc1cc(Nc2ncc(F)c(Nc3ccc4nccnc4c3NS(C)(=O)=O)n2)c(OC)cc1N1CCC(N2CCN(C)CC2)CC1 [Example A32]	false
CCc1cc(Nc2ncc(Cl)c(Nc3ccc4c(c3N(C)S(C)(=O)=O)OCCO4)n2)c(OC)cc1N1CCC(N2CCOCC2)CC1 [Example C30]	true
CCS(=O)(=O)Nc1c(Nc2nc(Nc3cc(C)c(N4CCC(N5CCN(C)CC5)CC4)cc3OC)ncc2Cl)cccc1OC [Example C16]	true
COc1cc(N2CCC(N3CCN(C)CC3)CC2)c(C)cc1Nc1ncc(Br)c(Nc2cccc(OC)c2N(C)S(C)(=O)=O)n1 [Example C21]	true

Qu. Threshold test, GI50 < 20 nM: CCc1cc(Nc2ncc(Br)c(Nc3ccc4nccnc4c3N(C)S(C)(=O)=O)n2)c(OC)cc1N1CCC(N2CCN(C)CC2)CC1 [Example A10]
Ans. true

Qu. For CCS(=O)(=O)Nc1c(Nc2nc(Nc3cc(C)c(N4CCC(N5CCN(C)CC5)CC4)cc3OC)ncc2Cl)ccc2nccnc12 [Example A25] , is the recorded GI50 below the cut-off of 20 nM?
Ans. true

----------
Target: Ba/F3 EGFR Del19/C797S mutants (Homo sapiens, UniProt P00533, C797S, cells depend on it, form not given)
Sequence (P00533 with tags, fused parts or gaps DEL746-750/C797S, form open): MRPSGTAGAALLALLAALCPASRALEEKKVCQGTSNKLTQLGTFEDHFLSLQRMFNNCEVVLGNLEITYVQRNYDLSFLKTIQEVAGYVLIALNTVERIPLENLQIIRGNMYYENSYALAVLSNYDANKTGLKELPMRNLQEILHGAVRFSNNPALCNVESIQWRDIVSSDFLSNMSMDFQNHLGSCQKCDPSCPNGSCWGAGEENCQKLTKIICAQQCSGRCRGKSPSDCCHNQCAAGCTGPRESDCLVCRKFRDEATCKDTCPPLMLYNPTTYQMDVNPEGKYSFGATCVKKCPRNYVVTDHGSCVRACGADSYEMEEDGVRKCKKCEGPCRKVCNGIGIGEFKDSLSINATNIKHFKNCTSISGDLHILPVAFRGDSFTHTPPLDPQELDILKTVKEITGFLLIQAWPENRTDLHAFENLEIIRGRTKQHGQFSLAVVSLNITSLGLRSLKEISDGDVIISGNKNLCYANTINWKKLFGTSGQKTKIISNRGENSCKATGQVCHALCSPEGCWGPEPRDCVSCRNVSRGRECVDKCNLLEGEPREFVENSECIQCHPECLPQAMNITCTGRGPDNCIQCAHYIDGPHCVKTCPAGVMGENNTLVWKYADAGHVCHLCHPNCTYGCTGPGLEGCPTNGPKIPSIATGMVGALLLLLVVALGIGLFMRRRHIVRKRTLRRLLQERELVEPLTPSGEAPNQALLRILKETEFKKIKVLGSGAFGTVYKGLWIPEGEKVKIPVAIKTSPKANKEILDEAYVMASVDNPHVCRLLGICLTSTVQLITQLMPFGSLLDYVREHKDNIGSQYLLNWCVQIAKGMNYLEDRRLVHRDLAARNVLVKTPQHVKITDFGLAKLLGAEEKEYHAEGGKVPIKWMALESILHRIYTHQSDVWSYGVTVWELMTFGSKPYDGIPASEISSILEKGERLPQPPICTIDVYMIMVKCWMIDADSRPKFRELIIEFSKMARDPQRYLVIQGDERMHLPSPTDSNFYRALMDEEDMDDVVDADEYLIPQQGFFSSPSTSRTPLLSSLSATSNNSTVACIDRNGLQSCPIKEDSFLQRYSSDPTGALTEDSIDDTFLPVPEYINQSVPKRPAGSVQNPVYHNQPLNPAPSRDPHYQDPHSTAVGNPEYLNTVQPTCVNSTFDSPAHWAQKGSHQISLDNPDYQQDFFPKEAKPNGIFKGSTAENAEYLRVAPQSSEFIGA
Assay: CellTiter-Glo cell viability, Ba/F3 EGFR Del19/C797S cells
Type: cell-based, murine
Details: 72 hours, read-out: Ba/F3 EGFR mutant cell (IC50, nM) D/C
OBSERVATION TYPE: GI50 (nM)
Could you give me the number in nM? Just the number is fine.

Consider the following illustrative entries.
COc1cc(N2CCC(N(C)C)CC2)c(C)cc1Nc1ncc(Cl)c(Nc2ccc3nccnc3c2NS(C)(=O)=O)n1 9
COc1cc(N2CCNCC2)ccc1Nc1ncc(Cl)c(Nc2cccc(OC)c2NS(C)(=O)=O)n1 106

Now for a further compound.
Qu. Quick one: GI50 of "CCc1cc(Nc2ncc(Cl)c(Nc3ccc(OC)c(OC)c3NS(C)(=O)=O)n2)c(OC)cc1N1CCC(N2CCOCC2)CC1" ?
Ans. 55

----------
Biological target: Ba/F3 EGFR Del19/C797S mutants (Homo sapiens, UniProt P00533, C797S, cells depend on it, form not given)
Assay: CellTiter-Glo cell viability, Ba/F3 EGFR Del19/C797S cells
Assay type: cell-based, murine
Settings: 72 hours, read-out: Ba/F3 EGFR mutant cell (IC50, nM) D/C
OBSERVATION TYPE: GI50 (nM)
Give your result in nM as a bare value.

COc1cc(N2CCC(N3CCN(C)CC3)CC2)c(C)cc1Nc1ncc(Cl)c(Nc2cccc(OC)c2NS(C)(=O)=O)n1 6
CCc1cc(Nc2ncc(Br)c(Nc3ccc4nccnc4c3N(C)S(C)(=O)=O)n2)c(OC)cc1N1CCN(C2CCN(C)CC2)CC1 10
COc1cc(N2CCC(N3CCN(C)CC3)CC2)c(C)cc1Nc1ncc(Br)c(Nc2ccc3nccnc3c2NS(C)(=O)=O)n1 12

Qu. What value of GI50 has been reported for the following compound? "CCc1cc(Nc2ncc(Cl)c(Nc3ccc4c(c3N(C)S(C)(=O)=O)OCCO4)n2)c(OC)cc1N1CCC(N2CCOCC2)CC1"
Ans. 6

Each recorded value in this set is attributed to patent US12297194B2.
